Each entry below carries its reported abundance fitness.
B1: Cyclin-F, residues 28 to 80; numbered along this chain, P41002 (parent)
chain: RNLTILSLPEDVLFHILKWLSVEDILAVRAVHSQLKDLVDNHASVWACASFQE

# Variants of: B1
# assay: abundance fitness (aPCA) (normalised: wild type 0, dead -1); higher = more abundant; growth selection in yeast, the domain comes from the species named
# experimental parameters: Homo sapiens
Returns: the value as a bare number; no unit string appended.

Below: 2 variants and their reported abundance fitness.
RNLTILSLPEDVLFHILKWLSVEDILAVRAVHSQLKDLVDNMASVWACASFQE [H42M] | -0.64
RNLTILSLPEDVLFHILKWGSVEDILAVRAVHSQLKDLVDNHASVWACASFQE [L20G] | -0.605

As a next step, examine the variant that follows.
Q: Value lookup for abundance fitness; key = RNLTILSLPEDVKFHILKWLSVEDILAVRAVHSQLKDLVDNHASVWACASFQE [L13K]
A: -0.431
